self-cleavage listing for selected variants.
B1: LINE1-full (parent)
chain: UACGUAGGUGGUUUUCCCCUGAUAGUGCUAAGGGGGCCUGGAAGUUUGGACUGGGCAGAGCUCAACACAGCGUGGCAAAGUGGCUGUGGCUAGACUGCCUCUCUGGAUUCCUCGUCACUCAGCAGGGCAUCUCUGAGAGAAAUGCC

variants of: B1; test: self-cleavage, relative activity (ratio to wild type); higher = more cleavage; in vitro, sequencing; the parent is a self-cleaving ribozyme
Format: numeric value only, no unit, no commentary.

Variant: U119A A129U
Readout value: 1.37

Ask: Name the recorded self-cleavage of the variant listed here: C3G A31U
Result: 0.98

Ask: Please list self-cleavage recorded for the variant G82A G86U
Result: 0.1

Ask: Determine from records and report self-cleavage for U39G U62C
Result: 0.1

Ask: Give the reported value of self-cleavage for this record: U81G A107G
Result: 1.01

Ask: Supply reported self-cleavage belonging to this variant: U13C G97A
Result: 0.08
